Tested on: undifferentiated ReNcell VM NPCs
Test: On-chip proliferation assay (EdU incorporation), undifferentiated NPCs
Assay type: cell-based, human
Conditions: Homo sapiens, ReNcell VM; undifferentiated, 72 hr exposure, EdU for the final 24 hr, sigmoidal fit; read-out: Proliferation Effects Undifferentiating IC50
Recorded Metric: IC50 (µM)
Write down the numeric answer in µM and omit the unit.

Answered cases to consult:
O=C(O)C[C@H](O)C[C@H](O)/C=C/c1c(C2CC2)nc2ccccc2c1-c1ccc(F)cc1    2
O=c1[nH]cc(F)c(=O)[nH]1    1.35
C[n+]1ccc(-c2cc[n+](C)cc2)cc1    59
CC(=O)Nc1ccc(O)cc1    1000

Per the records, this compound ( CC1=C(/C=C/C(C)=C/C=C/C(C)=C/C(=O)O)C(C)(C)CCC1 ) has IC50 equal to 15
